Listed here: items and their measured pKa.
Assay: pKa by half-neutralization technique in acetonitrile-water
Format: physicochemical
Conditions: 15% acetonitrile-water mixture; 15% acetonitrile-water, as listed in Table 2; read-out: pKa in 15% acetonitrile-water
Write no unit; give the number alone.

Check out these entries, answers already filled in.
## Input Please report the recorded pKa for OB1OCc2ccccc21 .
## Output 7.8

## Input # input compound: OB(O)c1cccc(Br)c1 ; wanted: its pKa
## Output 8.48

***
## Input Which pKa is listed for OB(O)c1ccccc1 ?
## Output 9.38

###

Target: iron-based NHase from Rhodococcus erythropolis AJ270 (Rhodococcus erythropolis)
Construct: purchased Prozomix Limited
Assay: Enzymatic inhibition of nitrile hydratase (NCTB conversion, 412 nm)
Assay type: biochemical
Conditions: [B]/[Dimedone] = 1.0 mM, 1 mM NCTB, 23° C.
Each entry below carries its reported Average rate (abs/min).
Return type: number; implicit unit abs/min.

Some compounds with recorded Average rate (abs/min):
## Input Which Average rate (abs/min) is reported for this compound? OB(O)c1cccc(Br)c1
## Output 0.00369

## Input For OB(O)c1ccccc1 , what is its reported Average rate (abs/min)?
## Output 0.0041

## Input Query: Average rate (abs/min); subject: OB1OCc2ccccc21
## Output 0.0034

Switching to the query record.
## Input Consider the compound CC1(C)CC(=O)CC(=O)C1 [Dimedone, 5,5-dimethyl-1,3-cyclohexanedione, reference compound] and give its measured Average rate (abs/min).
## Output 0.0017

###

Target: iron-based NHase from Rhodococcus erythropolis AJ270 (Rhodococcus erythropolis, UniProt P13448)
Construct: purchased Prozomix Limited
Assay: Enzymatic inhibition of nitrile hydratase (NCTB conversion, 412 nm)
Format: biochemical
Details: [B]/[Dimedone] = 2.0 mM; nmol thiolate product per minute per mg freeze-dried NHase powder
property.label: Activity

# example entries with known answers
## Input Name the reported Activity value associated with the compound CC1(C)CC(=O)CC(=O)C1 [Dimedone, 5,5-dimethyl-1,3-cyclohexanedione, reference compound]
## Output 0 nmol/min/mg

## Input Could you share which Activity value was measured for OB1OCc2ccccc21 [Compound 2A] ?
## Output 0.592 nmol/min/mg

## Input Which Activity reading was recorded for the compound OB(O)c1ccccc1 [Compound 2g, phenylboronic acid] ?
## Output 0.851 nmol/min/mg

Okay, now this compound:
## Input For OB(O)c1cccc(Br)c1 [Compound 2d, 3-Bromobenzene-boronic acid] , what is its reported Activity?
## Output 0.775 nmol/min/mg

###

Target: iron-based NHase from Rhodococcus erythropolis AJ270 (Rhodococcus erythropolis, UniProt P13448)
Construct: purchased Prozomix Limited
Sequence (P13448 1-207): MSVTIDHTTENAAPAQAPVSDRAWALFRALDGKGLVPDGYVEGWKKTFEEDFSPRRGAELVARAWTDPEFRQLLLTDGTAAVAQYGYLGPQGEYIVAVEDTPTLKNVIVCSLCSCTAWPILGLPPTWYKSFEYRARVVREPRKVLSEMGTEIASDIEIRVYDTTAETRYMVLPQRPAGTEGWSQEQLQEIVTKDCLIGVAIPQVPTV
Sequence (P13449 1-212 partner): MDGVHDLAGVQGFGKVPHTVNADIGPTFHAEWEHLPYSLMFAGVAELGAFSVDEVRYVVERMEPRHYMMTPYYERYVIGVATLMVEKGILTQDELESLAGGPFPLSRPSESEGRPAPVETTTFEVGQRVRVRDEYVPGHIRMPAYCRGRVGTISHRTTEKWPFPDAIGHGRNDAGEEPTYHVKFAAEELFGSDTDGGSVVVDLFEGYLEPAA
Assay: Enzymatic inhibition of nitrile hydratase (NCTB conversion, 412 nm)
Format: biochemical
Details: [B]/[Dimedone] = 2.0 mM, 1 mM NCTB, 23° C.
Readings of Average rate (abs/min) for the listed compounds
Answer with a number only, understood to be in abs/min.

Here is how some compounds turned out for Average rate (abs/min).
## Input What value of Average rate (abs/min) has been reported for the following compound? CC1(C)CC(=O)CC(=O)C1 [Dimedone, 5,5-dimethyl-1,3-cyclohexanedione, reference compound]
## Output 0

## Input Could you share which Average rate (abs/min) value was measured for OB(O)c1ccccc1 ?
## Output 0.00382

## Input For the compound shown here, OB(O)c1cccc(Br)c1 , give the reported Average rate (abs/min).
## Output 0.00348

Would you kindly look at the next entry?
## Input If you can, please state the reported Average rate (abs/min) value of OB1OCc2ccccc21 .
## Output 0.00266

###

Molecular target: iron-based NHase from Rhodococcus erythropolis AJ270 (Rhodococcus erythropolis)
Construct: purchased Prozomix Limited
Assay: Enzymatic inhibition of nitrile hydratase (NCTB conversion, 412 nm)
Assay type: biochemical
Settings: [B]/[Dimedone] = 2.0 mM; NHase without additive = 100%
Reported values of Rate relative to NHase for individual entries
Write the answer as a number in %, unit excluded.

Past entries and their recorded results:
## Input Return Rate relative to NHase measured with iron-based NHase from Rhodococcus erythropolis AJ270 (Rhodococcus erythropolis) given this compound: OB1OCc2ccccc21 [Compound 2A]
## Output 61

## Input Request: Rate relative to NHase, test system iron-based NHase from Rhodococcus erythropolis AJ270 (Rhodococcus erythropolis), entry OB(O)c1ccccc1 [Compound 2g, phenylboronic acid]
## Output 87

// below: Rate relative to NHase requested for another compound
## Input Find Rate relative to NHase (iron-based NHase from Rhodococcus erythropolis AJ270 (Rhodococcus erythropolis)) for the entry OB(O)c1cccc(Br)c1 [Compound 2d, 3-Bromobenzene-boronic acid]
## Output 79

###

Molecular target: iron-based NHase from Rhodococcus erythropolis AJ270 (Rhodococcus erythropolis, UniProt P13448)
Construct: purchased Prozomix Limited
Experiment: Enzymatic inhibition of nitrile hydratase (NCTB conversion, 412 nm)
Type: biochemical
Conditions: [B]/[Dimedone] = 0.5 mM; nmol thiolate product per minute per mg freeze-dried NHase powder
property.label: Activity (nmol/min/mg)
Express it in nmol/min/mg; write the number only.

Some compounds with recorded Activity:
## Input Recorded Activity of OB(O)c1ccccc1 , please.
## Output 0.968

## Input Which Activity reading was recorded for the compound CC1(C)CC(=O)CC(=O)C1 [Dimedone, 5,5-dimethyl-1,3-cyclohexanedione, reference compound] ?
## Output 0.611

## Input # get_value(readout='Activity', item= OB1OCc2ccccc21 )
## Output 0.870

Next up:
## Input Using the record for OB(O)c1cccc(Br)c1 , report its Activity.
## Output 0.878

###

Kd values for the molecules below.
Assay: Spectrophotometric (UV/vis) titration of boronic acids 2 against the sodium salt of sulfenic acid 1, incl. reversibility with NaOH
Details: read-out: Averaged Kd from spectrophotometric titrations; complex 1:2, 15% (v/v) acetonitrile-water
The reply should be a number in µM, with the unit left off.

## Input Reported Kd, molecule OB(O)c1cccc(Br)c1 : ____
## Output 158

Please turn your attention to the following entry.
## Input // query Kd value for entry OB(O)c1ccccc1
## Output 200

###

Test: pKa by half-neutralization technique in acetonitrile-water
Format: physicochemical
Conditions: 15% (v/v) acetonitrile-water mixture; 15% (v/v) acetonitrile-water, half-neutralization, averaged duplicates, Table 1; read-out: pKa in 15% acetonitrile-water at 22° C.
Note to self: values exactly at 9 are 1. So pKa at or above 9 is 1, below is -1.

## Input # check: pKa of O=C1c2ccccc2C(=O)c2c(SO)cccc21 [Compound 1, anthraquinone-1-sulfenic acid, reference compound] is greater than or equal to 9
## Output -1

## Input Kindly determine if pKa recorded for COc1ccc(B(O)O)cc1 is above or exactly 9.
## Output 1

## Input Reported pKa reaches at least 9 for O=[N+]([O-])c1ccc(B(O)O)cc1 ?
## Output -1

## Input Can OB1OCc2ccccc21 be said to have pKa at or above 9?
## Output -1

---
## Input Item OB(O)c1ccc(F)cc1 with pKa of 9 or above?
## Output 1

## Input Does the reported pKa for OB(O)c1ccccc1 fall at or above the 9 mark?
## Output 1

## Input // inclusive: pKa at least 9? input: OB(O)c1cccc(Br)c1
## Output -1

###

Biological target: iron-based NHase from Rhodococcus erythropolis AJ270 (Rhodococcus erythropolis, UniProt P13448)
Construct: purchased Prozomix Limited
Sequence (P13448 1-207): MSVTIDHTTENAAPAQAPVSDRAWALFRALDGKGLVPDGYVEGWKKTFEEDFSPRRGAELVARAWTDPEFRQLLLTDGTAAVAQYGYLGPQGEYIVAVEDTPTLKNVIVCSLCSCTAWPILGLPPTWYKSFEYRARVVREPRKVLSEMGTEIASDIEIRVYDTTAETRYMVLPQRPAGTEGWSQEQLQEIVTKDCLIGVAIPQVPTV
Sequence (P13449 1-212 partner): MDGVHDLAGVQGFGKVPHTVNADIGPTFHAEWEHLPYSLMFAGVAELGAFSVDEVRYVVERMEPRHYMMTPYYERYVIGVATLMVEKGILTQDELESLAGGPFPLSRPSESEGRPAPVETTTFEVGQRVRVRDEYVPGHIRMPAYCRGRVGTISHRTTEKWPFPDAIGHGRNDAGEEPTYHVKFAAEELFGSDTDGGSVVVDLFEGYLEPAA
Test: Enzymatic inhibition of nitrile hydratase (NCTB conversion, 412 nm)
Type: biochemical
Details: [B]/[Dimedone] = 1.0 mM; NHase without additive = 100%
property.label: Rate relative to NHase (%)
Number only, in %; omit the unit.

Solved entries (count: 3):
## Input # input compound: CC1(C)CC(=O)CC(=O)C1 [Dimedone, 5,5-dimethyl-1,3-cyclohexanedione, reference compound] ; wanted: its Rate relative to NHase
## Output 37

## Input Please give the measured Rate relative to NHase for this compound: OB(O)c1ccccc1 [Compound 2g, phenylboronic acid]
## Output 91

## Input Query: Rate relative to NHase; subject: OB1OCc2ccccc21 [Compound 2A]
## Output 74

Shift focus to the following entry.
## Input // returns reported Rate relative to NHase for input OB(O)c1cccc(Br)c1 [Compound 2d, 3-Bromobenzene-boronic acid]
## Output 81
